Reference source: patent US20260055106A1

- assayed.system: PARG (Homo sapiens)
- Construct: endogenous in cells; host or cells: U2OS
- Sequence (Q86W56 whole entry): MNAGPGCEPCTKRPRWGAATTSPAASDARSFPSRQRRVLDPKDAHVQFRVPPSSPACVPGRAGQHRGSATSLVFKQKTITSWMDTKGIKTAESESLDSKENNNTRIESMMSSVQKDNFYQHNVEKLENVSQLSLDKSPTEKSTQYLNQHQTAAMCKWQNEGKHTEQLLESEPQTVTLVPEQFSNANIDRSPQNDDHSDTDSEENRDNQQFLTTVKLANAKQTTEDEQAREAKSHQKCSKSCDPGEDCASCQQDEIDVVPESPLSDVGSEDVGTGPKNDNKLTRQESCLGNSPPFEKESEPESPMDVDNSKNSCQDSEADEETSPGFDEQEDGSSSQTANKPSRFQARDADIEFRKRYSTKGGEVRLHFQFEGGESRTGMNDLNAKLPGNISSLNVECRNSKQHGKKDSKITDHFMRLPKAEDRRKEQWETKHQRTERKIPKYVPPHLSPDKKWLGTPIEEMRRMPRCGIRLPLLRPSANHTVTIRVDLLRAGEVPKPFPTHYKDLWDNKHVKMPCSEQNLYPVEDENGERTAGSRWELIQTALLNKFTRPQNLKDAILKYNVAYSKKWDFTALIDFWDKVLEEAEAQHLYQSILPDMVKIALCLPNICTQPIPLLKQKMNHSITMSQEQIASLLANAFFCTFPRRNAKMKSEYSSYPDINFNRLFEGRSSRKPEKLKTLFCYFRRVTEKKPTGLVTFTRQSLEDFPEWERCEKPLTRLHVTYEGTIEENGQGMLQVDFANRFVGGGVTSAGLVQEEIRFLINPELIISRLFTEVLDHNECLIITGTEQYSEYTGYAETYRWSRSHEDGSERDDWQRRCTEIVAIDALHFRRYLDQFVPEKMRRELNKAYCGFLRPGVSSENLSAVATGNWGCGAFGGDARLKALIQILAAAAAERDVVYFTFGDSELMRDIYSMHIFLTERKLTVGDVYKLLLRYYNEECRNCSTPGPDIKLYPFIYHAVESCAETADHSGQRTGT
- test.protocol: Cellular PAR chain assay
- Assay type: cell-based
- study.conditions: U2OS cells; without treatment of TMZ; read-out: EC50 determined in Cellular PAR chain assay (conditions without treatment of TMZ)
Structures can show the parent of a compound that is named as a salt.
value.type: EC50

molecule: C[C@H]1CN(c2cc(S(=O)(=O)NC3(C)CC3)cn3c(-c4nnc(C(F)F)s4)ncc23)C[C@H](C)N1 [Example 1, formate]
test.value: < 3 nM

---

- System: NCI-H460
- test.protocol: Cellular viability assay (NCI-H460)
- Type: cell-based
- study.conditions: 96 hours incubation; Cell Titer-Glo; listed as 1b fraction B; read-out: EC50 determined in NCIH-460 cells, Cellular viability assay
pEC50: −log10 of the molar value.

compound: C[C@H]1CN(c2cc(S(=O)(=O)NC3(C)CC3)cn3c(-c4nnc(C(F)F)s4)ncc23)C[C@H](C)N1 (single isomer, unassigned) [Example 1b]
assayed.system: NCI-H460
pEC50: 7.66
